Origin of values: patent US9132084B2

assay.text: in vivo
measurement.conditions: female, Gottingen, minipig, in vivo, iv, 4 ug/kg

| compound | unit.symbol | clearance |
| --- | --- | --- |
| OCc1cc(C(O)CNCCCCCCOCCCCc2ccccc2)ccc1O (racemic) | mL/min/kg | 45.5 |

---

assay.text: in vivo
measurement.conditions: female, Gottingen, minipig, in vivo, sc, 4 ug/kg, AUCinf

| compound | AUC(0-inf) |
| --- | --- |
| OCc1cc(C(O)CNCCCCCCOCCCCc2ccccc2)ccc1O (racemic) [Salmeterol] | 1.85 ng·h/mL |

---

assay.text: Plasma pharmacokinetics following a single intravenous and subcutaneous injection of a combination of formoterol and budesonide
measurement.conditions: female, Gottingen, minipig, in vivo, iv, 0.4 ug/kg, Tmax, formoterol 0.4 μg/kg IV in combination with budesonide, female 2-0623

| compound | Tmax [min] |
| --- | --- |
| COc1ccc(CC(C)NCC(O)c2ccc(O)c(NC=O)c2)cc1 (stereo not shown) | 2 |

---

assay.text: Plasma pharmacokinetics following single intravenous and subcutaneous injections of salmeterol xinafoate
measurement.conditions: male, Gottingen, minipig, in vivo, 0.04 mg/kg

| compound | concentration at 0.0833 hr, pg/mL |
| --- | --- |
| OCc1cc(C(O)CNCCCCCCOCCCCc2ccccc2)ccc1O (racemic) [Salmeterol] | 2.77 |

---

assay.text: Plasma pharmacokinetics following a single intravenous and subcutaneous injection of a combination of formoterol and budesonide
measurement.conditions: female, Gottingen, minipig, in vivo, iv, Plasma concentration of formoterol, IV 0.4 μg/kg, combination, female 2-0623, 1.00 hr

| compound | unit.symbol | concentration at 1 hr |
| --- | --- | --- |
| COc1ccc(CC(C)NCC(O)c2ccc(O)c(NC=O)c2)cc1 (stereo not shown) | ng/mL | 0.0454 |

---

assay.text: Plasma pharmacokinetics following single intravenous and subcutaneous injections of salmeterol xinafoate
measurement.conditions: male, Gottingen, minipig, in vivo, sc
attribute.measured: concentration at 0.0833 hr (ng/mL)

| compound | attribute.measured | measured.result |
| --- | --- | --- |
| OCc1cc(C(O)CNCCCCCCOCCCCc2ccccc2)ccc1O (racemic) | concentration at 0.0833 hr | 0.575 |

---

assay.text: Plasma pharmacokinetics following a single intravenous and subcutaneous injection of a combination of formoterol and budesonide
measurement.conditions: male, Gottingen, minipig, in vivo, Plasma concentration of formoterol, SC1 0.4 μg/kg, combination, male 1-0771, 24.0 hr
Protocol: Formoterol fumarate dehydrate and budesonide were formulated in 2% PEG-400 in saline. 1 male and 1 female non-naive Gottingen minipigs (8 to 12 kg upon receipt per protocol) were utilized. The animals were housed individually. […] Plasma samples were analyzed for formoterol and budesonide using a qualified liquid chromatography/mass spectrometry/mass mass spectrometry (LC/MS/MS) method. The lower limit of quantitation (LLOQ) was 1.00 pg/mL for formoterol and 25.0 pg/mL for budesonide. […]

| compound | concentration at 24 hr (pg/mL) |
| --- | --- |
| COc1ccc(CC(C)NCC(O)c2ccc(O)c(NC=O)c2)cc1 (stereo not shown) | 2.87 |

---

assay.text: Plasma pharmacokinetics following a single intravenous and subcutaneous injection of a combination of formoterol and budesonide
measurement.conditions: female, Gottingen, minipig, in vivo, Plasma concentration of formoterol, SC5 0.4 μg/kg, combination, female 2-0623, 4.00 hr
Method: Formoterol fumarate dehydrate and budesonide were formulated in 2% PEG-400 in saline. 1 male and 1 female non-naive Gottingen minipigs (8 to 12 kg upon receipt per protocol) were utilized. The animals were housed individually. […] Plasma samples were analyzed for formoterol and budesonide using a qualified liquid chromatography/mass spectrometry/mass mass spectrometry (LC/MS/MS) method. The lower limit of quantitation (LLOQ) was 1.00 pg/mL for formoterol and 25.0 pg/mL for budesonide. […]

| compound | unit.symbol | concentration at 4 hr |
| --- | --- | --- |
| COc1ccc(CC(C)NCC(O)c2ccc(O)c(NC=O)c2)cc1 (stereo not shown) | ng/mL | 0.026 |
